assayed_target: OTU domain-containing protein 3 (Homo sapiens)
procedure_details: Validation of screening hits, potency titration, in vitro enzymatic, OTU domain-containing protein 3 DUB inhibitors (AID 1645868)
condition_parameters: purified OTUD3, ubiquitin-rhodamine cleavage fluorescence, 2 h
Calls of active or inactive are those of the source.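 Rule for the calls: active = maximal percent inhibition of the deubiquitinase OTUD3 of at least 30% across the tested doses; inactive = the rest.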
Outcomes: active, inactive

[[record]]
sample_smiles = "CCOC(=O)Nc1ccc(N2CCn3c(nc4ccccc43)C2)cc1OC"
category_label = "inactive"

[[record]]
sample_smiles = "FC(F)(F)c1cccc(N2CCN(c3nc4ccccc4n4nnnc34)CC2)c1"
category_label = "inactive"

[[record]]
sample_smiles = "O=C(Nc1ccc2c(c1)OCCO2)C1CCN(C(=O)c2cc(-c3cccnc3)n[nH]2)CC1"
category_label = "inactive"

[[record]]
sample_smiles = "COc1ccc(-c2cc(-c3nnc(CSc4nc5ccccc5n4C)o3)c3ccccc3n2)cc1OC"
category_label = "inactive"

[[record]]
sample_smiles = "O=C(Cc1ccccc1F)Nc1nc(-c2ccco2)c(-c2ccco2)s1"
category_label = "inactive"

[[record]]
sample_smiles = "COc1ccc(-n2c(SCC(=O)c3ccc(F)cc3)nnc2-c2cccnc2)cc1"
category_label = "active"

[[record]]
sample_smiles = "O=C(Nc1ccc2c(c1)OCCO2)c1ccc(N2CCCCC2)nn1"
category_label = "inactive"

[[record]]
sample_smiles = "Cc1ccc(OC(=O)c2cn(-c3ccccc3)nc2-c2cccnc2)cc1"
category_label = "inactive"

[[record]]
sample_smiles = "COc1ccc(Cl)cc1N1C(=O)[C@H]2[C@@H](C1=O)[C@]1(C(=O)Nc3c(C)cc(C)cc31)N1CCC[C@@H]21"
category_label = "inactive"

[[record]]
sample_smiles = "COc1ccc(C(=O)Nc2ccc3c(c2)C(=O)N(C)c2ccccc2O3)cc1"
category_label = "inactive"


* * *

assayed_target: OTU domain-containing protein 3 (Homo sapiens) (UniProt Q5T2D3)
Sequence (Q5T2D3 whole entry, looked up, the tested form may be a part): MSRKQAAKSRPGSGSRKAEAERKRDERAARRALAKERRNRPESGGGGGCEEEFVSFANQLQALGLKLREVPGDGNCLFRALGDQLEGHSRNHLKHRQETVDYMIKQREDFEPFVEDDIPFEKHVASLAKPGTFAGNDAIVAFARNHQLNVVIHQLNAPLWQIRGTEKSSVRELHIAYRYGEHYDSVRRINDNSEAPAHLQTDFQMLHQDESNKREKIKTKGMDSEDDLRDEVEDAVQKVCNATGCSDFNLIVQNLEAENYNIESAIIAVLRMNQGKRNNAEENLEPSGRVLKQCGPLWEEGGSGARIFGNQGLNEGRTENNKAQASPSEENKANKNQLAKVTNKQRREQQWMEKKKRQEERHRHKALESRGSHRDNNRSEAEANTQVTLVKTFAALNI
procedure_details: Validation of screening hits, potency titration, in vitro enzymatic, OTU domain-containing protein 3 DUB inhibitors (AID 1645868)
condition_parameters: purified OTUD3, ubiquitin-rhodamine cleavage fluorescence, 2 h
Calls of active or inactive are those of the source.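 How the source made its calls: active means maximal percent inhibition of the deubiquitinase OTUD3 of at least 30% across the tested doses; inactive means the rest.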
Outcomes: active, inactive

[[record]]
compound = "O=C(NC(Cc1ccccc1)c1nc2ccccc2[nH]1)C1CC1 (stereo not given)"
category_label = "inactive"

[[record]]
compound = "COCCn1ccc2nc(C)c(C(=O)Nc3ccc4c(c3)OCCO4)cc2c1=O"
category_label = "inactive"

[[record]]
compound = "O=C(NCc1ccc(Br)cc1)c1ccc(-c2cccnc2)nc1"
category_label = "inactive"

[[record]]
compound = "Cc1ccc(CN2CCCn3nc(C(=O)NCc4ccc(F)cc4)cc3C2=O)cc1"
category_label = "inactive"

[[record]]
compound = "O=c1[nH]c(C2CCN(S(=O)(=O)c3ccc(S(=O)(=O)NC4CCCCC4)cc3)CC2)nc2c1nnn2Cc1c(Cl)cccc1Cl"
category_label = "active"


* * *

assayed_target: OTU domain-containing protein 3 (Homo sapiens) (UniProt Q5T2D3)
procedure_details: Validation of screening hits, potency titration, in vitro enzymatic, OTU domain-containing protein 3 DUB inhibitors (AID 1645868)
condition_parameters: purified OTUD3, ubiquitin-rhodamine cleavage fluorescence, 2 h
Active and inactive are the calls of the source.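 Rule for the calls: active = maximal percent inhibition of the deubiquitinase OTUD3 of at least 30% across the tested doses; inactive = the rest.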
Outcomes: active, inactive

[[record]]
compound = "O=C(CSc1nnc(CNC(=O)c2ccccc2F)o1)Nc1ccc(OC(F)(F)F)cc1"
category_label = "active"

[[record]]
compound = "Cc1ccc(Cn2nnc(-c3noc(-c4ccc[nH]4)n3)c2C)cc1"
category_label = "inactive"

[[record]]
compound = "N#Cc1c(N)nc2c(c1N)C(c1ccccc1)CO2 (centres undefined)"
category_label = "inactive"

[[record]]
compound = "O=C(CSc1nnc2n1CCCCC2)Nc1ccc2[nH]c(=O)[nH]c2c1"
category_label = "inactive"

[[record]]
compound = "COc1ccc(-c2cc(C(C)=O)c(C)n2CCC(=O)Nc2ccc(OC)cc2OC)cc1"
category_label = "inactive"

[[record]]
compound = "COc1ccc(-c2[nH]c3ccccc3c2SCCNC(=O)c2ccc(S(=O)(=O)N3CCOCC3)cc2)cc1"
category_label = "inactive"

[[record]]
compound = "CC(=O)c1ccc(NC(=O)c2nc3ccccc3nc2N2CCOCC2)cc1"
category_label = "inactive"

[[record]]
compound = "COc1cccc(CN2CCc3nc4nc(C)ccc4cc3C2)c1"
category_label = "inactive"

[[record]]
compound = "Cc1cc(C)c2nc3c(cc2c1)CN(Cc1ccco1)C(=O)O3"
category_label = "inactive"

[[record]]
compound = "COc1ccc(-c2nonc2NC(=O)C(c2ccccc2)c2ccccc2)cc1OC"
category_label = "inactive"

[[record]]
compound = "Cc1nn(-c2ccc([N+](=O)[O-])cc2)c(C)c1-c1nc2ccccc2[nH]1"
category_label = "active"

[[record]]
compound = "CC(C(=O)NCc1ccc(F)cc1)n1cccc1C(=O)c1ccccc1 (centres undefined)"
category_label = "inactive"

[[record]]
compound = "O=C(CNc1ccc(F)c(Cl)c1)Nc1ccc2c(c1)OCCO2"
category_label = "inactive"

[[record]]
compound = "CC(C)(C)C(=O)[C@@H]1[C@@H](C(=O)c2ccc3c(c2)OCO3)[C@@]2(C(=O)Nc3ccccc32)[C@H]2c3ccccc3C=CN12"
category_label = "inactive"

[[record]]
compound = "Cc1ccc(Cl)cc1NC(=O)COC(=O)c1ccc2ccccc2n1"
category_label = "inactive"

[[record]]
compound = "O=C(OCCCN1C(=O)c2cccc3c(N4CCCCC4)ccc(c23)C1=O)c1ccccn1"
category_label = "inactive"

[[record]]
compound = "Cc1c(-c2nc(-c3ccccc3Cl)no2)nnn1-c1cccc(F)c1"
category_label = "inactive"

[[record]]
compound = "CN(C)c1cc(-n2cnc(C(=O)NCc3ccccc3Cl)c2)ncn1"
category_label = "active"

[[record]]
compound = "O=C(Nc1ccc2ccccc2n1)c1ccc(Cl)cc1"
category_label = "active"

[[record]]
compound = "Cc1[nH]nc(NC(=O)C2COc3ccccc3O2)c1-c1ccccc1 (centres undefined)"
category_label = "active"

[[record]]
compound = "Cc1ccc(S(=O)(=O)N2CCCCC2)cc1NC(=O)Cc1cccc(F)c1"
category_label = "inactive"

[[record]]
compound = "Cc1cc(=O)c2c(O)oc(O)c3c(O)cc(=O)c1c32"
category_label = "active"

[[record]]
compound = "COc1cccc2sc(N3CCN(c4nc5ccccc5s4)CC3)nc12"
category_label = "inactive"

[[record]]
compound = "O=C(CCSc1ccc(Cl)cc1)c1cccs1"
category_label = "active"

[[record]]
compound = "CC(C)NC(=O)Cn1ccn2nc(-c3ccc(Cl)cc3)cc2c1=O"
category_label = "inactive"

[[record]]
compound = "Cc1ccc(C(=O)NCC(=O)Nc2nc3ccccc3[nH]2)c(C)c1"
category_label = "active"

[[record]]
compound = "O=C(Nc1ccc2c(c1)N(C(=O)C1CCCC1)CC2)c1c(F)cccc1F"
category_label = "inactive"

[[record]]
compound = "CC1(O)CC(=O)c2c(cc3cc(O)cc(O)c3c2O)C1 (centres undefined)"
category_label = "active"

[[record]]
compound = "Cc1cc(C(F)(F)F)n2nc(C3CCN(C(=O)c4cnn(C)c4C)C3)cc2n1 (centres undefined)"
category_label = "inactive"

[[record]]
compound = "COc1ccc(S(=O)(=O)Nc2ccc(Nc3ccc(-n4cccn4)nn3)cc2)cc1"
category_label = "inactive"

[[record]]
compound = "O=C1N(Cc2ccc(F)cc2)CCN1c1ccc2c(c1)CCC2"
category_label = "inactive"

[[record]]
compound = "NC(=O)c1ccc(NC(=O)Cc2cc(-c3ccc(Cl)cc3)on2)cc1"
category_label = "inactive"

[[record]]
compound = "O=C(CNC(=O)c1cc2ccccc2o1)Nc1ccc2c(c1)OCCO2"
category_label = "active"

[[record]]
compound = "Clc1cncc(Oc2nc(-c3cccnc3)nc3ccccc23)c1"
category_label = "inactive"

[[record]]
compound = "Fc1ccc(Nc2nc(Nc3cccc(F)c3)nc3nccnc23)cc1"
category_label = "inactive"

[[record]]
compound = "Cc1ccc2nc(N3CCc4ccccc4C3)c3nncn3c2c1"
category_label = "inactive"

[[record]]
compound = "CC(C)NC(=O)CN1C(=O)CC(C)Sc2ccc(S(=O)(=O)N3CCCCC3)cc21 (centres undefined)"
category_label = "active"

[[record]]
compound = "CCc1cc2c(=O)[nH]c(Cc3ccc(OC)cc3)nc2s1"
category_label = "active"

[[record]]
compound = "COC1=CC(=O)c2c(O)c(C)c(CC(C)=O)c(O)c2C1=O"
category_label = "inactive"

[[record]]
compound = "COc1cccc2cc(C(=O)Nc3ccc4c(c3)OCCO4)oc12"
category_label = "inactive"

[[record]]
compound = "Cc1cc(-c2nnc(SCC(=O)Nc3ccc(Br)c(C)c3)n2N)n[nH]1"
category_label = "active"

[[record]]
compound = "Cc1cccc(NC(=O)Cn2cnc(-c3noc(-c4ccccc4)n3)c2)c1C"
category_label = "active"

[[record]]
compound = "Cc1ccc(NC(=O)Cc2nnc3cc(-c4nc(C)no4)ccn23)cc1"
category_label = "active"

[[record]]
compound = "CCOc1ccc2c(c1)c(=O)c(C(=O)c1ccccc1)cn2CC(=O)Nc1ccccc1"
category_label = "active"

